Tested on: A549/ATCC NSCLC
ASSAY_SUMMARY: NCI-60 one-dose screen, 48 h
RUN_PARAMETERS: 10 µM unless noted
Protocol: Growth inhibition of the A549/ATCC human Non-Small Cell Lung tumor cell line is measured as a screen for anti-cancer activity. Cells are grown in 96 well plates and exposed to the test compound for 48 hours. Compounds are tested at a single concentration, which is 10^-5 M for most compounds. The reported endpoint is percent growth (GI% or GIPRCNT), where numbers from 0 - 100% represent growth inhibition, and numbers from -100% - 0 represent cell death. […]
Compounds without any hit were thinned out: in the full panel of roughly 83,000, 20% have a hit. Activity calls are given as the source filed them. Rule for the calls: active = growth percent below 10; inactive = the rest.
Please state which outcome applies, choosing from active, inactive

O=C(CI)Nc1ccc(Br)cc1    inactive
CC1(C)N=C(N)N=C(N)N1c1ccc(CCCCc2ccc(S(=O)(=O)F)cc2)cc1    inactive
COc1ccc(NP2(=O)OCC(C)(N)CO2)cc1 (configuration not stated)    inactive
C[CH2][Sn]([CH2]C)([CH2]C)[NH]S(=O)(=O)c1ccc(C)cc1    inactive
CN(C)P1(N(C)C)=NP(N(C)C)(N(C)C)=NP(N(C)C)(N(C)C)=N1    inactive

Each molecule tested received a call. Report the one for COC(=O)C1CC2c3ccccc3C1c1ccccc12 (configuration not stated) .
inactive

Each molecule tested received a call. Report the one for CC(=O)C1CCC2C3CC=C4CC(OC(=O)Cc5ccc(N(CCCl)CCCl)cc5)CCC4(C)C3CCC12C (configuration not stated) .
inactive

Each molecule tested received a call. Report the one for C1CNC2CCCC2C1 (configuration not stated) .
inactive

Each molecule tested received a call. Report the one for NC(=O)SCC(=O)Nc1ccc([As](=O)(O)O)cc1 .
inactive

Each molecule tested received a call. Report the one for COc1ccc(CN2CCN(Cc3ccccc3)CC2)c(O)c1 .
inactive

Values from PubChem BioAssay (NCI)
